Assay: Hemolysis assay with human erythrocytes
Assay type: cell-based
Settings: human, human erythrocyte suspension, pH 7.4, human RBC suspension, compound at 80 µg/mL, PBS pH 7.4, mean ± SD
# note: boundary value 0.1% maps to 0 (no); hemolysis at 80 µg/mL below it maps to 1 (yes)

[[record]]
compound = "Cc1ccc(C2N(C(C)(C)C)C(=O)C2(Cl)Cl)cc1 (centres unmarked)"
classname = "0 (no)"

[[record]]
compound = "CC(C)(C)N1C(=O)C(Cl)(Cl)C1c1cc(F)cc(F)c1 (centres unmarked)"
classname = "0 (no)"

[[record]]
compound = "CC(C)N1C(=O)C(Cl)(Cl)C1c1ccccc1 (centres unmarked)"
classname = "1 (yes)"

[[record]]
compound = "Cc1ccccc1C1N(C(C)(C)C)C(=O)C1(Cl)Cl (centres unmarked)"
classname = "1 (yes)"

[[record]]
compound = "O=C1N(C2CCCCC2)C(c2ccccc2)C1(Cl)Cl (centres unmarked)"
classname = "0 (no)"

